# TESTED ON: angiotensin II receptor (Rattus norvegicus)
# Sequence (P25095 1-359): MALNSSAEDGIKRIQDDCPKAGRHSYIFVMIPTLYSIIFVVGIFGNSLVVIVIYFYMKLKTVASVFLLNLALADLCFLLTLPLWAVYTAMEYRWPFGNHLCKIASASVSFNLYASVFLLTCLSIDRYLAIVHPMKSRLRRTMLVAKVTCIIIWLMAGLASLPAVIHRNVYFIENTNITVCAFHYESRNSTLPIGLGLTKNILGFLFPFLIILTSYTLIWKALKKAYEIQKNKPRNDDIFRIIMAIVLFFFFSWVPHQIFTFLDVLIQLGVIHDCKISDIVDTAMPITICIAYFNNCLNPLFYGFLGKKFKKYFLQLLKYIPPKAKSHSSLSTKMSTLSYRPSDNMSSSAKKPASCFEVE
ATTRIBUTE MEASURED: IC50 (nM)
Numbers only, in nM.

Consider CCCCc1cc(Cc2ccc(-c3ccccc3C(=O)O)cc2)c2ccccc2n1 [Example 4] . Its measured IC50 is 540

Source listed as patent US5817674A.
